Test system: U2OS
Test: Multiplex assay against U2OS
Type: toxicity, cell-based
Conditions: human, 48 h, 10 µM, compound concentration 10 uM, replicate 2
VALUE_KIND: Population Mitotic Cells (%)
Note: unit % is implicit; provide only the numeric part.

Example entries and their recorded answers appear below.
CN(C)C(=O)Cn1cc(-c2ccc(-c3cncc4ccccc34)cc2)cn1 : 7
COC[C@@H](c1ccc(C(F)(F)F)cc1)N1CCN(C2(C)CCN(C(=O)c3c(C)ncnc3C)CC2)C[C@@H]1C.O=C(O)/C=C\C(=O)O [VICRIVIROC MALEATE] : 6
Cl.N=C(N)NC(=O)Cc1c(Cl)cccc1Cl [GUANFACINE HYDROCHLORIDE] : 4
CC(C)c1noc(N2CCC(COc3ccc(-c4ccc(S(C)(=O)=O)cc4)nc3)CC2)n1 : 16

Let us move to another entry and its Population Mitotic Cells (%).
Item under review: "Cc1noc(-c2ccc(-c3ccc(CC(=O)O)cc3)cc2)c1NC(=O)O[C@H](C)c1ccccc1Cl" . Reported Population Mitotic Cells (%)?
14

Values were extracted from ChEMBL document CHEMBL5058577.
